# Test system: PPARg:RXRa 90nM:30nM, anti-RXR (NR concentration 90 nM, RXRa partner concentration 30 nM)
# assay.details: PBM binding z-score (relative to random genomic background probes); higher = stronger binding; sequences stand for … in GC…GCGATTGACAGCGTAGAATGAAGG
Listed here are sequences together with their documented PBM binding z-score.
Just the number, please.

These solved cases illustrate the format of a correct answer.
construct.sequence: ATCTCTAGGTAAGACTCAGATCAGTGAAGAACGC
readout.type: PBM binding z-score
assay.value: 0.3
--
construct.sequence: TCAAACAGGTGAAGGTAACTCAGGTACGCAGTCG
readout.type: PBM binding z-score
assay.value: 3.48
--
construct.sequence: GCAGACAGGTGAAAGGCAGGTAACTCAGGGTGGC
readout.type: PBM binding z-score
assay.value: 0.391
--
construct.sequence: CCTAGCAGGCCTATCTGGGTCACTCAAGGCTTGA
readout.type: PBM binding z-score
assay.value: 1.15
--
construct.sequence: TCTAGCAGGCCAAAGGGTCACTCAAGAGGTACGG
readout.type: PBM binding z-score
assay.value: 4.89

CCTACTGTGCCAAAGGTCATTGATTCCAATGCTC yielded PBM binding z-score of 10.3

====

# System: PPARg:RXRa 30nM:10nM, anti-RXR (NR concentration 30 nM, RXRa partner concentration 10 nM)
# assay.details: PBM binding z-score (relative to random genomic background probes); higher = stronger binding; sequences stand for … in GC…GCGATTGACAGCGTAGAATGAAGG
Respond with fulfilled for PBM binding z-score values of 0.7 and above, not fulfilled for values below.

As a guide, the following entries are already answered.
construct.sequence: ATATGTAGGTTACATCCGGGTCATTCATGCTATG
class: fulfilled
//
construct.sequence: CGTCGAAGTTCAAGGTAACGTAACAGAAAGCAGC
class: not fulfilled
//
construct.sequence: GCACATAGGTAATACAAGGTGAAAGTCCGATTGT
class: not fulfilled
//
construct.sequence: CCTAGTTGGTCATGGTCACACACGCTATAGGTAC
class: not fulfilled
//
construct.sequence: CCTAGTTGGTCAGGAGGACACACACCGGATATGA
class: not fulfilled

Is PBM binding z-score for TCTATTAGTTGATTAGGGCAAACGAAACAGCGGA at or above 0.7? fulfilled

hey, is PBM binding z-score for this one >= 0.7? CCTACCGGGCCAAGGTCATTGATCAGTCAAAGCA not fulfilled

State whether the measured PBM binding z-score reaches 0.7, counting equality as reaching it, for TCTAGTTGGTCAAAGGTCACACCCTCGAAATGCG fulfilled

Does the reported PBM binding z-score for CCTCGGAGGCCAGAAGGTCAGAGCTGTCCGCTTT fall at or above the 0.7 mark? not fulfilled

Hi team, for TCGAGTAGGTTACCAATGGGGCAGTCAGCTTTCT , is the recorded PBM binding z-score at or above 0.7? fulfilled

Decide: is the reported value of PBM binding z-score for ATCTCTAGGTAAGGATAGTTCAGTGAATGCAAAT equal to or greater than 0.7? not fulfilled

Please indicate if the recorded PBM binding z-score for CATACAGGGTCAGTTAGGCCAGAGTAGGGACGGC meets or exceeds 0.7. fulfilled

Check this sequence for PBM binding z-score at or above 0.7: CCGACTGGGGCAAAGGATACCATACTCAGTACGA fulfilled

Say whether GCTCGGAGGACAATGTCAGAGCTTTGTCCGTAGA shows PBM binding z-score of 0.7 or more. not fulfilled

Quick check, PBM binding z-score >= 0.7? CGTCCAAGGTTAGCAGGTCAGTGAAAGCGACGTG not fulfilled

Confirm if PBM binding z-score reported for the sequence CGTCAAAGTTCAAGGTAACGTCACAGAAAGCAGC is 0.7 or above. fulfilled

PBM binding z-score >= 0.7 for AATAGTTGGTCAGCTGAGGTCACACACAATTCGG ? not fulfilled

Can GCATATAGGCAATACAAGGTGAAAGTCCGATTGT be said to have PBM binding z-score at or above 0.7? not fulfilled

Is PBM binding z-score for TTACCAAGGTGAAAGATCGTTGATGCACGCCTTG at or above 0.7? fulfilled

====

# Test system: RARa:RXR (NR concentration 270 nM, RXRa partner concentration 90 nM)
# assay.details: PBM binding z-score (relative to random genomic background probes); higher = stronger binding; sequences stand for … in GC…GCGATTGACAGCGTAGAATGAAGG
readout.type: PBM binding z-score
Could you keep your reply to the number by itself?

construct.sequence: TCTGCTAGGTCAGTTGGTCAGCTACCGAGCTGCC
assay.value: 0.438

Notebook: CGACAAAGTTCAACTAAGGTAACGTAAAGCACGC , PBM binding z-score read as 3.51

Data point: GCAGACATGTGAAACGCAGGTAACTCAGGGTGGC ; PBM binding z-score = -0.472

====

# Test system: PPARg homodimer (NR concentration 180 nM)
# assay.details: PBM binding z-score (relative to random genomic background probes); higher = stronger binding; sequences stand for … in GC…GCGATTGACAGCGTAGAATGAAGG
Entries annotated with measured PBM binding z-score
// no unit, no text: just the number

construct.sequence: GCTCGTTGGTCAGTAAAAGGTCACACACCGGTCG
readout.type: PBM binding z-score
assay.value: 4.91

construct.sequence: ATATGTAGGTTATCGGGTCATTCAATTTGCGCAT
readout.type: PBM binding z-score
assay.value: 2.28

Measured PBM binding z-score (PPARg homodimer (NR concentration 180 nM)), entry CCAACTAGGTCACAGAGGTCAAAGTCCGTGCGTA : 5.09

PBM binding z-score for PPARg homodimer (NR concentration 180 nM) with input CTTACTGGGCCATTCAGAGGTCATTGATCATATG equals 2.09

PPARg homodimer (NR concentration 180 nM) data for ATATGTAGGTAAGCTGGGGTCATTCAGACTAGGC ; its PBM binding z-score: 1.48

Summary line: GCATACAGGTGAAACGCAGGTAACTCAGGGTGGC , PPARg homodimer (NR concentration 180 nM), reported PBM binding z-score = -0.115

====

# Test system: VDR:RXRa (NR concentration 270 nM, RXRa partner concentration 90 nM)
# assay.details: PBM binding z-score (relative to random genomic background probes); higher = stronger binding; sequences stand for … in GC…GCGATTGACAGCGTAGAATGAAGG
Class definitions on PBM binding z-score: lower bin (below 0.4), middle bin (0.4 to below 1), upper bin (1 or more)

construct.sequence: GGAACGAGGGCAAATTTGATAGCATCTGTCGACG
class: middle bin
--
construct.sequence: AACTCTAGGTAAAGATAGTTCAGTGAATGCAAAT
class: middle bin

Categorize the following entry: GCATATTGGTAATACAAGGTGAAAGTCCGATTGT lower bin

Any idea which band TCATATAGGTAATACAGGTGTAAGTCGGCATCTA is in? upper bin

State the band of CCTACTGGGCCATCAGGTCATCGATATCAACGTT upper bin

Kindly identify the class of GATAAAGGGTCAAGGCCAGAGTACGCGTATTGAT . upper bin

Determine which band this sequence sits in: TCTTGAAGATCAGCAGGTTAAGAAAGCTGGCCAA lower bin

Each sequence maps to one class by PBM binding z-score. Which class for CCTCCTAGGTCAATGGTCAGCTAAAGCAGCTCGC ? upper bin

Using the reported PBM binding z-score, which band applies to CGACCAAGGTGAACAAGGTCGTTGATTACTATTC ? upper bin

Returns: class label. Input: ACAGACAGGTGAGTGAAGGTAACTCTGCTGGACG lower bin

Any idea which band GCAGACAGGTGAAACGCAGGTAACTCATGGTGGC is in? lower bin

====

Reported PBM binding z-score by item:
# Tested on: THRa homodimer (NR concentration 90 nM)
# assay.details: PBM binding z-score (relative to random genomic background probes); higher = stronger binding; sequences stand for … in GC…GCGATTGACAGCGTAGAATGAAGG
Answer as a number with no unit attached.

construct.sequence: GCTGCTAGGTCAGGTTGGTCAGATAACGGGTACG
PBM binding z-score: 0.684

Next item in the queue.
Recorded result, ATACGAAGGTGATCGTGAGGTCGTTGATACTAAC , PBM binding z-score: 1.94

====

# Tested on: RARa homodimer (NR concentration 270 nM)
# assay.details: PBM binding z-score (relative to random genomic background probes); higher = stronger binding; sequences stand for … in GC…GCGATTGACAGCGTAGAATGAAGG
Hi, to clarify the labels: yes covers PBM binding z-score from 0.4 upward, no covers anything below 0.4.

Sample answers from the record:
construct.sequence: CCGAGTAGGTTATGGGGCATGCAGGCAACGGTGA
target: RARa homodimer (NR concentration 270 nM)
class: no
--
construct.sequence: CCAGACAGGTGAGAAGGTAATTCAGCCTCGATTA
target: RARa homodimer (NR concentration 270 nM)
class: yes
--
construct.sequence: TATACAGGGTCAAAGGCCCGAGTACGAATGTCGA
target: RARa homodimer (NR concentration 270 nM)
class: no
--
construct.sequence: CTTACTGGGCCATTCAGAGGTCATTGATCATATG
target: RARa homodimer (NR concentration 270 nM)
class: yes
--
construct.sequence: ATCTCTAGGTAAAGATAGTTAAGTGAATGCAAAT
target: RARa homodimer (NR concentration 270 nM)
class: yes
--
construct.sequence: GTAACGAGGGCAAGTTGATAGCAGAGTTTGATGG
target: RARa homodimer (NR concentration 270 nM)
class: yes
--
construct.sequence: ACTAGCTGGCCAAGGGTCACTCAAGATTAGTCCG
target: RARa homodimer (NR concentration 270 nM)
class: no
--
construct.sequence: TAGCTTAGGTCATGGGCCAGTATACCACGCGAAC
target: RARa homodimer (NR concentration 270 nM)
class: no

Given TAGCCTAGGTCATACGGGCCAGTATAGTGTCGGC , state whether its PBM binding z-score is at least 0.4. no

Textbook exercise: given the entry CTTCGGAGGACAGAAGGTCAGAGCTGTCCGCTTT , state whether its PBM binding z-score is greater than or equal to 0.4. no

Decide: is the reported value of PBM binding z-score for CCTCCAAGGTCAGAGAGGTCAGTGAATGCCGAGT equal to or greater than 0.4? yes

Decide: PBM binding z-score of ATCTCTAGGTAAATATAGTTCAGTGAATGCAAAT >= 0.4? yes
